- System: MCF10A
- protocol_details: 5+ nucleoli phenotype percent effect (relative to siNT 0% and siKIF11 100%); higher = more cells with five or more nucleoli
- condition_notes: 20 nM; 72 h
The sequences listed here are annotated with their 5+ nucleoli phenotype percent effect.
Quick note: give the figure in %, leave out the unit.

• GAUGCGCCGCCCACUGCCCCGCGC [hsa-miR-4787-3p] = 33.1
• CUCGGCGCGGGGCGCGGGCUCC [hsa-miR-1469] = -35.5
• GUGAGUAGUGGCGCGCGGCGGC [hsa-miR-6869-5p] = -16.7

Q: Identify 5+ nucleoli phenotype percent effect associated with the sequence GAACGCGCUUCCCUAUAGAGGGU [hsa-miR-523-3p]
A: 23.3

Q: Identify 5+ nucleoli phenotype percent effect associated with the sequence AACUAGUAAUGUUGGAUUAGGG [hsa-miR-3923]
A: -20.8

Q: Identify 5+ nucleoli phenotype percent effect associated with the sequence UCCAGCAUCAGUGAUUUUGUUG [hsa-miR-338-3p]
A: 26.3

Q: Identify 5+ nucleoli phenotype percent effect associated with the sequence CAGUUCUGCUGUUCUGACUCUAG [hsa-miR-6874-3p]
A: -30.6

Q: Identify 5+ nucleoli phenotype percent effect associated with the sequence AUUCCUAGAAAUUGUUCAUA [hsa-miR-384]
A: 23.8

Q: Identify 5+ nucleoli phenotype percent effect associated with the sequence GCUACUUCACAACACCAGGGCC [hsa-miR-138-1-3p]
A: 30.5

Q: Identify 5+ nucleoli phenotype percent effect associated with the sequence ACAGAUUCGAUUCUAGGGGAAU [hsa-miR-10b-3p]
A: -9.13

Q: Identify 5+ nucleoli phenotype percent effect associated with the sequence GCGACUCUGAAAACUAGAAGGU [hsa-miR-4431]
A: 34.2

###

- System: MCF10A
- protocol_details: one-nucleolus phenotype percent effect (relative to siNT 0% and siNOL11 100%); higher = more cells with one nucleolus (ribosome biogenesis inhibition)
- condition_notes: 20 nM; 72 h
readout_kind: one-nucleolus phenotype percent effect (%)
Quick note: give the figure in %, leave out the unit.

A selection of reference data follows.
- AAAAACUGAGACUACUUUUGCA [hsa-miR-548e]: -28.9
- ACUGGAAUUGGAGUCAAAA [hsa-miR-6128]: -18.6
- AGGGACUUUUGGGGGCAGAUGUG [hsa-miR-365a-5p]: -13.1
- CCCUCUCUGUCCCACCCAUAG [hsa-miR-6769b-3p]: -27.6

Q: Identify one-nucleolus phenotype percent effect associated with the sequence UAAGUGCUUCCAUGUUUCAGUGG [hsa-miR-302c-3p]
A: -16.2

###

- System: MCF10A
- protocol_details: percent viability (nuclei count relative to siNT); higher = more viable cells
- condition_notes: 20 nM; 72 h
Please note: percent viability exactly at 40% is no. Only values below 40% get yes.

- UCCGUCUCAGUUACUUUAUAGC [hsa-miR-340-3p]: no
- AAAGCUGGGUUGAGAAGG [hsa-miR-320e]: yes
- UGGGAGAGAGGACUGUGAGGC [hsa-miR-8085]: yes

Q: Consider UCUUCACCUGCCUCUGCCUGCA [hsa-miR-6754-3p] . Does its percent viability lie strictly below 40%?
A: no

Q: Consider ACCCCACUCCUGGUACC [hsa-miR-4286] . Does its percent viability lie strictly below 40%?
A: no

Q: Consider CUGGGAGAAGGCUGUUUACUCU [hsa-miR-30c-2-3p] . Does its percent viability lie strictly below 40%?
A: yes

Q: Consider AAAAGUAAUUGCAGUUUUUGC [hsa-miR-548ar-5p] . Does its percent viability lie strictly below 40%?
A: no

Q: Consider UAGUGCAAUAUUGCUUAUAGGGU [hsa-miR-454-3p] . Does its percent viability lie strictly below 40%?
A: no

Q: Consider UUCUCGAGGAAAGAAGCACUUUC [hsa-miR-516a-5p] . Does its percent viability lie strictly below 40%?
A: no

Q: Consider CAGGAAGGAUUUAGGGACAGGC [hsa-miR-4476] . Does its percent viability lie strictly below 40%?
A: yes

Q: Consider UUGGGGAAACGGCCGCUGAGUG [hsa-miR-2110] . Does its percent viability lie strictly below 40%?
A: no

###

- Test system: MCF10A
- protocol_details: percent viability (nuclei count relative to siNT); higher = more viable cells
- condition_notes: 20 nM; 72 h
readout_kind: percent viability (%)
Quick note: give the figure in %, leave out the unit.

• AAAAGUAAUUGCGGUUUUUGCC [hsa-miR-548am-5p] = 139
• UUCAUUCGGCUGUCCAGAUGUA [hsa-miR-1298] = 130

Q: Identify percent viability associated with the sequence GAGGGCAUGCGCACUUUGUCC [hsa-miR-4761-3p]
A: 20

Q: Identify percent viability associated with the sequence AGACAGUAGUUCUUGCCUGGUU [hsa-miR-4645-3p]
A: 52.7

###

The sequences listed here are annotated with their percent viability.
- System: MCF10A
- protocol_details: percent viability (nuclei count relative to siNT); higher = more viable cells
- condition_notes: 20 nM; 72 h
Quick note: give the figure in %, leave out the unit.

A selection of reference data follows.
- CUUAGACUGCCAGACUCCCUGA [hsa-miR-7702]: 163
- AUGCUGACAUAUUUACUAGAGG [hsa-miR-628-5p]: 107
- CUAUACAAUCUAUUGCCUUCCC [hsa-let-7f-1-3p]: 39.2
- CAAAAACCGCAAUUACUUUUGCA [hsa-miR-548h-3p]: 52
- AUAAAGCUAGAUAACCGAAAGU [hsa-miR-9-3p]: 44.1
- CUCACUCUCAGUCCCUCCCU [hsa-miR-6794-3p]: 88.6

Q: Under MCF10A, report percent viability for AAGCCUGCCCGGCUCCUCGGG [hsa-miR-596]
A: 74.8

Q: Under MCF10A, report percent viability for UGCCCUUCUCUCCUCCUGCCU [hsa-miR-6886-3p]
A: 35.2

Q: Under MCF10A, report percent viability for AAACCGUUACCAUUACUGAGUU [hsa-miR-451a]
A: 69.8

Q: Under MCF10A, report percent viability for AAGUUCUGUUAUACACUCAGGC [hsa-miR-148b-5p]
A: 37.1

Q: Under MCF10A, report percent viability for GUAGGGGAGGUUGGGCCAGGGA [hsa-miR-6824-5p]
A: 78.1

###

The sequences listed here are annotated with their percent viability.
- System: MCF10A
- protocol_details: percent viability (nuclei count relative to siNT); higher = more viable cells
- condition_notes: 20 nM; 72 h
Quick note: give the figure in %, leave out the unit.

* AGAGCAGAAGGAUGAGAU [hsa-miR-4468] | 16.5

Q: Under MCF10A, report percent viability for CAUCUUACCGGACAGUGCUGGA [hsa-miR-200a-5p]
A: 56

Q: Under MCF10A, report percent viability for CAACAAAUCCCAGUCUACCUAA [hsa-miR-7-2-3p]
A: 104

Q: Under MCF10A, report percent viability for ACAGGGCCGCAGAUGGAGACU [hsa-miR-3918]
A: 8.55

Q: Under MCF10A, report percent viability for UUGCAUAGUCACAAAAGUGAUC [hsa-miR-153]
A: 116

Q: Under MCF10A, report percent viability for AGGCAGCGGGGUGUAGUGGAUA [hsa-miR-885-3p]
A: 19.2

Q: Under MCF10A, report percent viability for CCUCACCACCCCUUCUGCCUGCA [hsa-miR-6511b-3p]
A: 69.7

Q: Under MCF10A, report percent viability for AUAGGACUCAUAUAGUGCCAG [hsa-miR-3117-3p]
A: 35.4

Q: Under MCF10A, report percent viability for GUUGGGACAAGAGGACGGUCUU [hsa-miR-3122]
A: 87.3

Q: Under MCF10A, report percent viability for GGAGUGGGCUGGUGGUU [hsa-miR-4481]
A: 37.8

Q: Under MCF10A, report percent viability for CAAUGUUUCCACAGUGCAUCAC [hsa-miR-33a-3p]
A: 51.1

Q: Under MCF10A, report percent viability for AAUGGAUUUUUGGAGCAGG [hsa-miR-1246]
A: 33

###

- Tested on: MCF10A
- protocol_details: 5+ nucleoli phenotype percent effect (relative to siNT 0% and siKIF11 100%); higher = more cells with five or more nucleoli
- condition_notes: 20 nM; 72 h
readout_kind: 5+ nucleoli phenotype percent effect (%)
Quick note: give the figure in %, leave out the unit.

A selection of reference data follows.
• AGCUUCCAUGACUCCUGAUGGA [hsa-miR-2115-5p] = -3.91
• GAUGAGCUCAUUGUAAUAUGAG [hsa-miR-556-5p] = 8.79
• CCUGGUGGCUUCCUUUU [hsa-miR-4456] = -4.84
• GCUGGGAAGGCAAAGGGACGU [hsa-miR-204-3p] = 24.5

Q: Identify 5+ nucleoli phenotype percent effect associated with the sequence UUUCUUCUUAGACAUGGCAACG [hsa-miR-4659a-3p]
A: -14.6

Q: Identify 5+ nucleoli phenotype percent effect associated with the sequence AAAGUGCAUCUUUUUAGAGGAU [hsa-miR-519c-3p]
A: 110

Q: Identify 5+ nucleoli phenotype percent effect associated with the sequence UGGCGAUUUUGGAACUCAAUGGCA [hsa-miR-8053]
A: 6.04

Q: Identify 5+ nucleoli phenotype percent effect associated with the sequence GCUGGUGACAUGAGAGGC [hsa-miR-4299]
A: 34.1

Q: Identify 5+ nucleoli phenotype percent effect associated with the sequence GGGAAGAGCUGUACGGCCUUC [hsa-miR-6077]
A: -35.5

Q: Identify 5+ nucleoli phenotype percent effect associated with the sequence CCAGGAGAUCCAGAGAGAAU [hsa-miR-4768-3p]
A: 1.69

Q: Identify 5+ nucleoli phenotype percent effect associated with the sequence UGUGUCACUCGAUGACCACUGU [hsa-miR-597]
A: -3.83

Q: Identify 5+ nucleoli phenotype percent effect associated with the sequence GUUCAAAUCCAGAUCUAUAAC [hsa-miR-607]
A: 34.2
